# System: U87MG pLVX-IDH2 R140Q-neo cells
# experimental.details: U87MG pLVX-IDH2 R140Q-neo cell based assay, 2-HG by LC-MS
# settings: Homo sapiens, U-87 MG
IC50: recorded values

Input line: Find the recorded IC50 belonging to FC1(F)CC[C@@H](Nc2nc(N[C@H]3CCC(F)(F)C3)nc(-c3cccc(C(F)(F)F)n3)n2)C1 [Compound 102] and report it.
Output line: < 50 nM

Input line: Next: CC(CC#N)Nc1nc(N[C@H](C)C2CC2)nc(-c2cccc(C(F)(F)F)n2)n1 (stereo partly drawn) [Compound 214]
Output line: < 50 nM

Input line: Next: FC1(F)CC(Nc2nc(NC3CC(F)(F)C3)nc(-c3cccc(OC(F)(F)F)n3)n2)C1 [Compound 277]
Output line: 50 to 100 nM

Where do these numbers come from? They come from patent US10028961B2.
